target: Kappa-type opioid receptor (Homo sapiens); test: Binding affinity using [3H]diprenorphine as the radioligand against wild-type Opioid receptor kappa 1 in COS-7 cells; type: cell-based, Cercopithecidae
Sequence (P41145 whole entry): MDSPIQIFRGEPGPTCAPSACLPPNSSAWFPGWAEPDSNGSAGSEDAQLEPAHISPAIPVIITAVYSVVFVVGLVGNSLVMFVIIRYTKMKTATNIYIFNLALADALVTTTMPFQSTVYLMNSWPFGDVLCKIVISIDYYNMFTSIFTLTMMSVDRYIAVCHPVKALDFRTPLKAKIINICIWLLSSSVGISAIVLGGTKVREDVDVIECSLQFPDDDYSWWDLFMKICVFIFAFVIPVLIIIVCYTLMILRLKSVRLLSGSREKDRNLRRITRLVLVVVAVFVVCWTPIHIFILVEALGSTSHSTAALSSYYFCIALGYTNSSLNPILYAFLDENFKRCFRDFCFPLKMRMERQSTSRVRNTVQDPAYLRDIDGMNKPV
pKi: −log10 of the molar value.
Cut-off 8 on pKi, inclusive. At or above means Yes; below means No.

| smiles-structure | study-target | category |
| --- | --- | --- |
| CN1CC[C@]23c4c5ccc(O)c4O[C@H]2c2[nH]c4c(c2C[C@H]3[C@H]1C5)C[C@@]1(O)[C@H]2Cc3ccc(O)c5c3[C@@]1(CCN2CC1CC1)[C@H]4O5 | Kappa-type opioid receptor (Homo sapiens) | Yes |
| CN1CC[C@]23c4c5ccc(O)c4O[C@H]2c2[nH]c4c(c2C[C@@]3(O)[C@H]1C5)C[C@@]1(O)[C@H]2Cc3ccc(O)c5c3[C@@]1(CCN2C)[C@H]4O5 | Kappa-type opioid receptor (Homo sapiens) | No |
| COc1ccc2c3c1O[C@H]1c4[nH]c5c(c4C[C@@]4(O)[C@@H](C2)N(CC2CC2)CC[C@]314)C[C@@]1(O)[C@H]2Cc3ccc(O)c4c3[C@@]1(CCN2CC1CC1)[C@H]5O4 | Kappa-type opioid receptor (Homo sapiens) | Yes |
| CC(=O)N1CC[C@]23c4c5ccc(O)c4O[C@H]2c2[nH]c4c(c2C[C@@]3(O)[C@H]1C5)C[C@@]1(O)[C@H]2Cc3ccc(O)c5c3[C@@]1(CCN2CC1CC1)[C@H]4O5 | Kappa-type opioid receptor (Homo sapiens) | No |
| COc1ccc2c3c1O[C@H]1c4[nH]c5c(c4C[C@@]4(O)[C@@H](C2)N(CC2CC2)CC[C@]314)C[C@@]1(O)[C@H]2Cc3ccc(O)c4c3[C@@]1(CCN2C)[C@H]5O4 | Kappa-type opioid receptor (Homo sapiens) | No |
